- Tested on: Mucor mucedo
- protocol-description: Antifungal activity against Mucor mucedo IFO 7684
- Assay type: functional
Consider the following compounds; for each one, report its MIC.
# value in µM; strip the unit string

What does the record list as MIC for `CCCCCCCCCCCCCCCC/N=C(\N)NC` ?
12.5

Recorded MIC for C/N=C(/N)NCCC/C=C/CCC[C@H](C)C[C@H](C)[C@H]1OC(=O)C(C)C(O)/C=C/C(C)C(O)CC(O)C(C)C(O)CCC(C)C(O)CC2(O)OC(CC(OC(=O)CC(=O)O)CC(O)CC(O)C(C)C(O)/C=C/C=C/C1C)CC(O)C2O (stereo partly drawn) , please?
10

Fill blank: measured MIC of the compound `C/N=C(/N)NCCCCCCCCCCCC(=O)O` is ____.
400

For `CCCCCCCCCCCC/N=C(\N)NC` , what is its reported MIC?
50
